System: fibronectin
Assay: Cell adhesion-inhibitory test against fibronectin (competitive assay, number of adhered cells)
Assay type: cell-based, human
Conditions: concentration 1.5 mg/ml; endothelium cells of blood vessel; 37° C., one hour; 0 mg/ml control 160
No end group written: not given here. sulfated CM‑chitin = sulfated carboxymethyl-chitin (CM-chitin), conjugated to the peptide; trimellityl CM‑chitin = trimellityl derivative of CM-chitin
Collected Cell Adhesion-Inhibitory effect Against Fibronectin (number of adhered cells) values appear next to each entry.
Report the figure in cell/well without appending any unit label.

Examples with answers:
| SUBSTANCE | NUMERIC_READOUT |
| --- | --- |
| Succinylated CM-Chitin Gly-Arg-Gly-Asp-Ser (GRGDS; also: conjugated to succinylated CM-chitin) [CM--chitin derivative-8] | 59 |
| Trimellityl Derivative of CM-Chitin Arg-Gly-Asp-Ser ({trimellityl CM‑chitin}-RGDS) [CM--chitin derivative-6] | 66 |

# query: Cell Adhesion-Inhibitory effect Against Fibronectin (number of adhered cells) | item Sulfated CM-Chitin-Arg-Gly-Asp-Ser ({sulfated CM‑chitin}-RGDS) [CM--chitin derivative-13] | system: fibronectin
33
